A collection of binders and their measured Kd
- target-under-test: T1, human serum albumin (human, UniProt P02768 25-609)
- T1 construct: also called HSA
- experimental-details: SPR, BIAcore 3000, HSA on CM5 chip
Give a bare numeral; the unit nM is implied.

- binder: "2D3-9GS-59F2-MycHis (other) EVQLVESGGSLVQPGGSLRLSCAASGFTFDDYAMSWVRQVPGKGLEWVSSINWSGTHTDYADSVKGRFTISRNNANNTLYLQMNSLKSEDTAVYYCAKNWRDAGTTWFEKSGSAGQGTQVTVSSGGGGSGGGSAAARYWDFDVFGGGTPVGGAAAEQKLISEEDLNGAAHHHHHH"
  unit-tag: "nM"
  Kd: 571
- binder: "2D3-9GS-59H12-MycHis (other) EVQLVESGGSLVQPGGSLRLSCAASGFTFDDYAMSWVRQVPGKGLEWVSSINWSGTHTDYADSVKGRFTISRNNANNTLYLQMNSLKSEDTAVYYCAKNWRDAGTTWFEKSGSAGQGTQVTVSSGGGGSGGGSAAARSWDFDVFGGGTPVGGAAAEQKLISEEDLNGAAHHHHHH"
  unit-tag: "nM"
  Kd: 663
- binder: "2D3-9GS-56E4-MycHis (other) EVQLVESGGSLVQPGGSLRLSCAASGFTFDDYAMSWVRQVPGKGLEWVSSINWSGTHTDYADSVKGRFTISRNNANNTLYLQMNSLKSEDTAVYYCAKNWRDAGTTWFEKSGSAGQGTQVTVSSGGGGSGGGSAAARYWDYDVFGGGTPVGGAAAEQKLISEEDLNGAAHHHHHH"
  unit-tag: "nM"
  Kd: 991

Note: attention shifts to another entry.
Request: Given the entry 2D3-9GS-59C2-MycHis (other) EVQLVESGGSLVQPGGSLRLSCAASGFTFDDYAMSWVRQVPGKGLEWVSSINWSGTHTDYADSVKGRFTISRNNANNTLYLQMNSLKSEDTAVYYCAKNWRDAGTTWFEKSGSAGQGTQVTVSSGGGGSGGGSAAARDWDFDVFGGGTPVGGAAAEQKLISEEDLNGAAHHHHHH , report its measured Kd.
Response: 481
